All values here come from the supplement of paper PMC10567573.

Items are presented alongside their recorded protein stability index.
Test: protein stability index of a GFP-peptide fusion (GPS, HEK-293T) (PSI 1-6); higher = more stable;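 further: 24-mer peptide tiles fused after GFP, lentivirally expressed, FACS-sorted into six equal bins by GFP/DsRed ratio, decoded by Illumina sequencing, PSI is the read-weighted mean bin number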
Test Parameters: treatment: DMSO; c terminus: a fixed tail appended
Assay Metric: protein stability index

Residues | Assay Metric | Test Value
PSDAPHAHHPLHPHLMQEHMGTNV [HNF4A] | protein stability index | 4.45
VFPIKHYQDKIRPYIQLPSHSNIT [TRIB1] | protein stability index | 2.5
DSEQVPQALRRLRPRTRKVKSVSP [NCF4] | protein stability index | 5.21
VAQTSLEEFNVLEMEVMRRQLYAV [FATE1] | protein stability index | 2.31
KKREKQREQMEQMKQRIAEENIMK [FAM50A] | protein stability index | 4.8
SRLQEDPEGTENPLGVDESLFSYG [SLA] | protein stability index | 4.91
PWERAMGVDPQQKMELGIDLLAYG [MYOZ1] | protein stability index | 2.97
PARLLLQALQAGPEGARRGLGVLR [FANCE] | protein stability index | 2.67
EDQAEAWGCSCCPPETKHQALSGT [TSPAN10] | protein stability index | 4.71
RVTTEQYQKAAEEVEAKFKRYESH [CHCHD3] | protein stability index | 4.66
MSPYLVPDTQALCHHLPVIRQLAT [SMG5] | protein stability index | 2.3
VPAAGGPAPKRGYSSEMKTEDELR [AUH] | protein stability index | 5.53
TLRPDQQLHIFNTLRSHLIDKGML [CDS2] | protein stability index | 2.14
